Kindly supply the reported IC50 values for the records listed here.
target: Recombinant human FGFR2 (Homo sapiens); test: Transcreener Kinase Assay of FGFR2; format: biochemical; settings: read-out: FGFR2 (FP) IC50
Sequence (P21802 22-821): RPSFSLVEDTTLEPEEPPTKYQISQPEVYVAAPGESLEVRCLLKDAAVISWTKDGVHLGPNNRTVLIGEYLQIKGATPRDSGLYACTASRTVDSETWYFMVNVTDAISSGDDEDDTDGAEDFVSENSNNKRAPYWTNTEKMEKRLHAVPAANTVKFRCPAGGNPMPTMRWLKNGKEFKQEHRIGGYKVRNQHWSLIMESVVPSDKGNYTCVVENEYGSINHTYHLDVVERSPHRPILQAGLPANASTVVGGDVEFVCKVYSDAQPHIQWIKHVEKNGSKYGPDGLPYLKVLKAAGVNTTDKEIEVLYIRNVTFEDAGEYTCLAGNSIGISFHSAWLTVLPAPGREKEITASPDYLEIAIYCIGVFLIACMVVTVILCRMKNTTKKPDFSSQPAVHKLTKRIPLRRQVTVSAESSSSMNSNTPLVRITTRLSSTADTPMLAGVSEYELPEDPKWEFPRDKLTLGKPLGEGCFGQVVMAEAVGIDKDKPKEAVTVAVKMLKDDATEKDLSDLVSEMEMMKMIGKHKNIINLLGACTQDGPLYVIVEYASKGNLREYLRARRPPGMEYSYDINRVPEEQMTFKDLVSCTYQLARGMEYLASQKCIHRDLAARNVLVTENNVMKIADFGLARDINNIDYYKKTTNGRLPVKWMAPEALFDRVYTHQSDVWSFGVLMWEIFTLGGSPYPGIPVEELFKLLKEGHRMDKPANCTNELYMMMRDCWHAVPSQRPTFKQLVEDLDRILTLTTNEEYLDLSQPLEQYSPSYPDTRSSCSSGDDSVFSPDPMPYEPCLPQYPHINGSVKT
One number for each entry, in nM.

>>> measvalue("CNC(=O)c1cc(COc2cnc(Nc3ccc(-n4cnnc4)cc3)nc2)c(F)c(OC)c1 [Compound 223]")
18

Give IC50 for all compounds that follow.
1. CNC(=O)c1cc(COc2cnc(Nc3ccnc(N4C[C@@H](C)N[C@@H](C)C4)c3)nc2)c(F)c(OC)c1 [Compound 259]
2. CNC(=O)c1cc(COc2cnc(Nc3ccc(-n4ccnn4)cc3)nc2)c(F)c(OC)c1 [Compound 222]
3. CCCN1CC(c2ccc(Nc3ncc(OCc4cc(C(=O)NC)cc(OC)c4F)cn3)cn2)C1 [Compound 241]
4. CNC(=O)c1cc(COc2cnc(Nc3ccc(OC)c(OC)c3)nc2)c(F)c(OC)c1 [Compound 218]
5. CNC(=O)c1cc(COc2cnc(Nc3ccc(C4CCNCC4)c(OC)c3)nc2)c(F)c(OC)c1 [Compound 258]

Result:
1. 14
2. 12
3. 21
4. 12
5. 15
